Test system: Mus musculus
ASSAY DETAILS: Biodistribution was measured in mice muscle 30 minutes after intravenous injection of [125I]-labeled styrylbenzene.
Assay type: ADME, organism-based, Muscle tissue
EXPERIMENTAL PARAMETERS: in vivo, 0.5 h
READOUT: Dose/organ (%)

Here is how some molecules turned out for Dose/organ.
>  <SMILES STRUCTURE>
CN(C)c1ccc(-c2nc3ccc(I)cc3s2)cc1

>  <MEASUREMENT UNITS>
%

>  <Dose/organ>
12.89

$$$$
>  <SMILES STRUCTURE>
CN1CCN(c2ccc(-c3nc4ccc(I)cc4s3)cc2)CC1

>  <MEASUREMENT UNITS>
%

>  <Dose/organ>
18.82

$$$$

[a] COc1ccc(/C=C/c2ccc(/C=C/c3ccc(OC)c(C(=O)O)c3)c(I)c2)cc1C(=O)O
[b] O=C(O)c1cc(/C=C/c2ccc(/C=C/c3ccc(O)c(C(=O)O)c3)c(I)c2)ccc1O
Incoming: Which is greater in Dose/organ, the first item a or the second item b ? Answer by stating the label of the chosen item.
Outgoing: b
(b: 3.9%, a: 1.82%)

###

Tested on: Mus musculus
ASSAY DETAILS: Biodistribution was measured in mice skin 30 minutes after intravenous injection of [125I]-labeled styrylbenzene.
Assay type: ADME, organism-based, Zone of skin
EXPERIMENTAL PARAMETERS: in vivo, 0.5 h
READOUT: Dose/organ (%)

>  <SMILES STRUCTURE>
CN1CCN(c2ccc(-c3nc4ccc(I)cc4s3)cc2)CC1

>  <Dose/organ (%)>
6.07

$$$$

[A] CN(C)c1ccc(-c2nc3ccc(I)cc3s2)cc1
[B] O=C(O)c1cc(/C=C/c2ccc(/C=C/c3ccc(O)c(C(=O)O)c3)c(I)c2)ccc1O
[C] COc1ccc(/C=C/c2ccc(/C=C/c3ccc(OC)c(C(=O)O)c3)c(I)c2)cc1C(=O)O
Incoming: Order these by Dose/organ, descending, and give the full ranking. Form entry: ranked labels (order as requested).
Outgoing: A, B, C
(A: 7.4%, B: 4.13%, C: 1.44%)

###

System: Mus musculus
ASSAY DETAILS: Biodistribution was measured in mice brain 60 minutes after intravenous injection of [125I]-labeled styrylbenzene
Assay type: ADME, organism-based
EXPERIMENTAL PARAMETERS: in vivo, 1 h
READOUT: Dose/organ (%)

Below are worked cases with known answers.
>  <SMILES STRUCTURE>
CN(C)c1ccc(-c2nc3ccc(I)cc3s2)cc1

>  <Dose/organ (%)>
1.57

$$$$
>  <SMILES STRUCTURE>
CN1CCN(c2ccc(-c3nc4ccc(I)cc4s3)cc2)CC1

>  <Dose/organ (%)>
1.89

$$$$

[I] O=C(O)c1cc(/C=C/c2ccc(/C=C/c3ccc(O)c(C(=O)O)c3)c(I)c2)ccc1O
[II] COc1ccc(/C=C/c2ccc(/C=C/c3ccc(OC)c(C(=O)O)c3)c(I)c2)cc1C(=O)O
Incoming: For the two items I and II , which reports the higher Dose/organ value? Answer format: the label of the selected item.
Outgoing: I
(I: 0.04%, II: 0.02%)

###

TARGET ENTITY: Amyloid-beta precursor protein (Homo sapiens, UniProt P05067)
Sequence (P05067 whole entry): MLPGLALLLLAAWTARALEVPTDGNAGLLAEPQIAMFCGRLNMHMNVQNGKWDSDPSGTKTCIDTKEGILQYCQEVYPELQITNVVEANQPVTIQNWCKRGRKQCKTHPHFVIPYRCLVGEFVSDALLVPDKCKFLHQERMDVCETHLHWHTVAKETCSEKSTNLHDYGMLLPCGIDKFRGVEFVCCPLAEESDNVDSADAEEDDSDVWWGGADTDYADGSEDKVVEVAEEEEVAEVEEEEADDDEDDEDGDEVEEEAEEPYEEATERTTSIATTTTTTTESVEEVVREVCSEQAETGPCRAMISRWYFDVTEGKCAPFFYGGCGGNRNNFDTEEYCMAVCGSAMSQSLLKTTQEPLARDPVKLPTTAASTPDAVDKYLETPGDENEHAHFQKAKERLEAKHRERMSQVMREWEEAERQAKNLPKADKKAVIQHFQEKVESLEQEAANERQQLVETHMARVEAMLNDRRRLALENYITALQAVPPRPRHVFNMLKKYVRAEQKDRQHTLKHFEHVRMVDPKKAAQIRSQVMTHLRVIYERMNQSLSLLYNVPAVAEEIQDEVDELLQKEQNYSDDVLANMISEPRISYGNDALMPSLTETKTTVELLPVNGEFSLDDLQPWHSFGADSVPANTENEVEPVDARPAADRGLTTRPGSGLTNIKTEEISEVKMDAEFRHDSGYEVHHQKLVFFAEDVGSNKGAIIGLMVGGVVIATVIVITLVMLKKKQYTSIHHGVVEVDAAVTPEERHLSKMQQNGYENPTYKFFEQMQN
ASSAY DETAILS: Inhibition constant of compound on ligand binding to aggregates of Amyloid beta was measured by comparing with [125I]TZDM
pKi: −log10 of the molar value.
READOUT: pKi

Incoming: Quickly give me recorded pKi for `O=C(O)c1cc(/N=N/c2ccc(-c3ccc(/N=N/c4ccc(O)c(C(=O)O)c4)cc3)cc2)ccc1O`
Outgoing: < 5.70
